Source listed as PubChem BioAssay.

method summary: FRG1 expression reporter modulators in myotubes – cell-based, C2C12 myotubes, firefly/Renilla luciferase, luminescence, FRG1 inhibition for FSHD, primary screen (AID 1084)
condition label: FRG1 promoter luciferase, higher = more signal, called active from +8 up or from −8 down
measure name: z-score
Would you mind answering with just the numeric figure?

// below: answered molecules
| given smiles | z-score |
| --- | --- |
| COCCOC(=O)N1C(=O)[C@@]2(c3ccccc31)[C@H](C(=O)N1CCN(c3ncccn3)CC1)[C@H]1C(=O)O[C@H](c3ccccc3)[C@H](c3ccccc3)N1[C@@H]2c1ccccc1OCCO | -1.12 |
| CC(C)c1nc2cc(Br)ccc2c(=O)o1 | 0.604 |
| C=CCOC(=O)[C@@H]1[C@H]2C(=O)O[C@H](c3ccccc3)[C@H](c3ccccc3)N2[C@H](c2ccc(OCCOC(=O)[C@H]3C[C@H]4C(=O)NCC(=O)N4[C@H]3c3cccc(OCCO)c3)cc2)[C@@]12C(=O)Nc1ccc(I)cc12 | 0.779 |
| COCCOC(=O)N1C(=O)[C@@]2(c3cc(C#CCC(C(=O)OC)C(=O)OC)ccc31)[C@H](C(=O)Nc1nc3ccccc3s1)[C@H]1C(=O)O[C@H](c3ccccc3)[C@H](c3ccccc3)N1[C@@H]2c1ccc(OCCO)cc1 | 4.17 |
| CCOC(=O)C1=CC[C@@H](c2ccccc2)N(S(=O)(=O)c2ccc(C)cc2)[C@H]1c1ccccc1I | -2.08 |

Now take the following molecule into account.
Qu. Param item = `C=C(/C(=C/C[C@@H](OC(C)=O)c1cccc(OCCO)c1)c1cnc2ccccc2c1)C(C)C` ; retrieve measured z-score.
Ans. 2

* * *

target or system: Torsin-1A-interacting protein 1 (Homo sapiens)
method summary: compound microarray binding of lysate hLAP1 – cell lysate, small-molecule microarray, COS7 lysate, 635/667 nm fluorescence, primary screen (AID 1116)
condition label: 635 nm fluorescence, higher = more signal
Measured composite z-score, listed per entry.
Give a plain numeric answer without units written out.

Worked cases, answers included:
| compound | target or system | measure name | measured value |
| --- | --- | --- | --- |
| O=C1OCCC=C[C@H]2OC34C=CCN(c5ccc6ccccc6c5)C(=O)[C@H]3N(CCO)C(=O)[C@@H]4C12 (stereo partly drawn) | Torsin-1A-interacting protein 1 (Homo sapiens) | composite z-score | 0.468 |
| COc1ccc([Si](C)(C)[C@@H]2[C@@H](CC(=O)N3CCC[C@H]3CO)O[C@]3(C(=O)N(Cc4ccc(N5CCOC5=O)cc4)c4ccccc43)[C@H]2C)cc1 | Torsin-1A-interacting protein 1 (Homo sapiens) | composite z-score | 1.1 |

Then this compound:
Qu. Could you share what composite z-score was measured for `C=CCOC(=O)[C@H]1[C@@H]2C(=O)O[C@@H](c3ccccc3)[C@@H](c3ccccc3)N2[C@@H](c2ccc(OCCOC(=O)[C@@H]3C[C@@H]4C(=O)N[C@@H](CCCC[N+](C)(C)C)C(=O)N4[C@@H]3c3ccc(O)cc3)cc2)[C@]12C(=O)Nc1ccc(I)cc12` , tested on Torsin-1A-interacting protein 1 (Homo sapiens)?
Ans. 1.84

* * *

Measured composite z-score of individual entries
target or system: Albumin (Bos taurus) (UniProt P02769)
Sequence (P02769 whole entry, looked up): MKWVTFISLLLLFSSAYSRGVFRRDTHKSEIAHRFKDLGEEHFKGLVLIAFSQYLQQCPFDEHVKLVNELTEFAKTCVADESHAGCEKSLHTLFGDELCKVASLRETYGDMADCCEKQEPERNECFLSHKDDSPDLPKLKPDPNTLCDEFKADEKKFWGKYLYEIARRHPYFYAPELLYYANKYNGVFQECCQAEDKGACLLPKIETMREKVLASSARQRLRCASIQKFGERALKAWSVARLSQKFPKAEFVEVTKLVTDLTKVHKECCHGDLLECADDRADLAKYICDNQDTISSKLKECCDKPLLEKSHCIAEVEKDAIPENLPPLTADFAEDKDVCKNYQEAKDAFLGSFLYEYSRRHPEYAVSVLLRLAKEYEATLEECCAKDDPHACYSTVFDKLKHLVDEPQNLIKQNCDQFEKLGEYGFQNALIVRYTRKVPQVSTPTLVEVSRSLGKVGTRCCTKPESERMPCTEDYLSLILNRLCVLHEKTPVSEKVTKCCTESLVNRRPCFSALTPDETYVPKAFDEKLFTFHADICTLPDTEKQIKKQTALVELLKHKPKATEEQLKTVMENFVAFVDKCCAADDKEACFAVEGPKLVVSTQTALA
method summary: compounds binding labelled BSA control protein – biochemical, small-molecule microarray, Alexa647 label, 635/667 nm fluorescence, artefact control for SMM control protein annotation, profiling panel (AID 1118);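 note: score merges 667 nm emission intensity and signal-to-noise per printed compound spot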
condition label: BSA-A647 binding, fluorescence 635 nm, higher = more signal
// no unit string in output, number only

| compound | composite z-score |
| --- | --- |
| O=C(NC1CC1)[C@@H]1c2ccccc2C(=O)N(Cc2ccc(OC(F)(F)F)cc2)[C@H]1c1ccc(CO)cc1 | 0.22 |
| COC(=O)[C@]1(Cc2ccccc2)N=C(c2ccc(OCCCO)cc2)O[C@@H]1c1ccccc1CN=[N+]=[N-] | -0.847 |
| COC(=O)C1=CC(CCCO)=CC(c2cccs2)N(Cc2cc3c(cc2Br)OCO3)C=C1C(=O)OC (configuration not stated) | 0.739 |

Qu. Param readout= composite z-score; system= Albumin (Bos taurus) (UniProt P02769); entry= C=CCC(OC(C)=O)[C@@H]1[C@@H](N(Cc2ccc(-c3ccccc3)cc2)C(=O)c2cccc3ccccc23)c2cc(OCCCO)ccc2N1C(=O)Cc1ccc(OC)cc1 (some centres not stated) ; returns value.
Ans. -0.276

Qu. Any idea what composite z-score came out for `C=CCOC(=O)[C@@H]1[C@H]2C(=O)O[C@H](c3ccccc3)[C@H](c3ccccc3)N2[C@H](c2ccc(OCCOC(=O)[C@H]3C[C@H]4C(=O)N5CCC[C@H]5C(=O)N4[C@H]3c3cccc(OCCO)c3)cc2)[C@@]12C(=O)Nc1ccc(I)cc12` on Albumin (Bos taurus) (UniProt P02769)?
Ans. -0.638

Qu. Item: CC(C)OC(=O)CC(=O)CC(O)c1cccc([N+](=O)[O-])c1 (configuration not stated) Test system: Albumin (Bos taurus) (UniProt P02769) Read-out: composite z-score Value: ?
Ans. 0.799

Qu. For Albumin (Bos taurus) (UniProt P02769), provide composite z-score of `COc1ccc([Si](C)(C)[C@H]2[C@H](CC(=O)N3Cc4ccccc4C[C@H]3CO)O[C@@]3(C(=O)N(C)c4ccccc43)[C@@H]2C)cc1` please.
Ans. 0.656

* * *

Below, each entry is listed alongside its reported composite z-score.
Tested on: Plasmodium falciparum Sir2 (PF13_0152, Sir2A)
method summary: Plasmodium falciparum Sir2A binding compounds – biochemical, small-molecule microarray, 635 nm fluorescence, primary screen (AID 1098);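 note: score merges spot fluorescence intensity with its signal-to-noise ratio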
condition label: fluorescence 635 nm, higher = more signal

The examples below pair each entry with its known result.
| molecule | target or system | composite z-score |
| --- | --- | --- |
| CC(C)OC(=O)CC(=O)CC(O)c1cccc([N+](=O)[O-])c1 (stereo not drawn) | Plasmodium falciparum Sir2 (PF13_0152, Sir2A) | 0.784 |
| CCCC#C[Si](O[C@H](CC)c1cn(Cc2ccccc2)nn1)(C(C)C)C(C)C | Plasmodium falciparum Sir2 (PF13_0152, Sir2A) | 0.524 |
| COc1ccc(C#Cc2ccc3c(c2)[C@]2(C(=O)N3)[C@H](C(=O)O)[C@H]3C(=O)O[C@H](c4ccccc4)[C@H](c4ccccc4)N3[C@@H]2c2ccccc2OCCO)cc1 | Plasmodium falciparum Sir2 (PF13_0152, Sir2A) | 1.54 |
| O=C1C2C=CC(C(O)c3c(F)cccc3Cl)N(Nc3ccc([N+](=O)[O-])cc3)C2C(=O)N1c1ccccc1 (stereo not drawn) | Plasmodium falciparum Sir2 (PF13_0152, Sir2A) | 0.77 |
| COC(=O)[C@@]1(Cc2ccc(OC)cc2)[C@H]2c3cc(C(=O)N4CCCC4)n(Cc4ccc(Cl)c(C(F)(F)F)c4)c3C[C@H]2CN1C(=O)c1ccccc1 | Plasmodium falciparum Sir2 (PF13_0152, Sir2A) | 1.38 |
| [N-]=[N+]=Nc1ccccc1[C@H]1OC(c2ccc(OCCCO)cc2)=N[C@@]1(Cc1ccccc1)C(=O)NCC(O)CO (stereo partly drawn) | Plasmodium falciparum Sir2 (PF13_0152, Sir2A) | 0.315 |
| C=C(COC)/C(=C/C[C@@H](OC(C)=O)c1ccccc1OCCO)c1cnc2ccccc2c1 | Plasmodium falciparum Sir2 (PF13_0152, Sir2A) | 1.24 |

Pending molecule:
Qu. Sample `Cc1ccc(S[C@]2(C(=O)NC3CC3)CC(=O)N(C(C)C)[C@@H]2c2ccc(CO)cc2I)cc1` — what was its composite z-score?
Ans. 1.37

* * *

method summary: resazurin metabolic signal in A549 cells – cell-based, resazurin fluorescence, 24 h, PK04 Diversity Set, profiling panel (AID 1171); note: test concentration not given here
condition label: A549 viability, higher = more signal, called active from +8 up or from −8 down
measure name: z-score
Kindly provide the number alone.

| compound | measure name | measured value |
| --- | --- | --- |
| COc1ccc(NN2C(C(O)c3ccc(I)cc3)C=CC3C(=O)N(C4CCCCC4)C(=O)C32)cc1 (centres undefined) | z-score | 1.47 |
| CC(C)C[C@H]1NC(=O)C([C@@H](C)OCc2ccccc2)NC(=O)[C@@]23C(=O)N[C@@H](Cc4ccccc4)C2[C@H](C)[C@@]2(C)O[C@H]2C3/C=C/C/C=C\CNC1=O (some centres undefined) | z-score | 0.154 |
| C=CC[C@]1(C(=O)NCC(O)CO)COC(c2ccc(OCCCO)cc2)=N1 (some centres undefined) | z-score | -0.106 |

Now consider the entry below.
Qu. Reported z-score for `O=C1O[C@@H](c2ccccc2)[C@@H](c2ccccc2)N2[C@@H](c3ccccc3OCCO)[C@]3(C(=O)Nc4ccc(C#CCCO)cc43)[C@@H](C(=O)NC[C@H](O)c3ccccc3)[C@H]12` : what is it?
Ans. 0.682
